Data origin: patent US12624034B2

target system: AKT2 (Homo sapiens)
Construct: expressed in transfected cells; host or cells: HEK293
Sequence (P31751 whole entry): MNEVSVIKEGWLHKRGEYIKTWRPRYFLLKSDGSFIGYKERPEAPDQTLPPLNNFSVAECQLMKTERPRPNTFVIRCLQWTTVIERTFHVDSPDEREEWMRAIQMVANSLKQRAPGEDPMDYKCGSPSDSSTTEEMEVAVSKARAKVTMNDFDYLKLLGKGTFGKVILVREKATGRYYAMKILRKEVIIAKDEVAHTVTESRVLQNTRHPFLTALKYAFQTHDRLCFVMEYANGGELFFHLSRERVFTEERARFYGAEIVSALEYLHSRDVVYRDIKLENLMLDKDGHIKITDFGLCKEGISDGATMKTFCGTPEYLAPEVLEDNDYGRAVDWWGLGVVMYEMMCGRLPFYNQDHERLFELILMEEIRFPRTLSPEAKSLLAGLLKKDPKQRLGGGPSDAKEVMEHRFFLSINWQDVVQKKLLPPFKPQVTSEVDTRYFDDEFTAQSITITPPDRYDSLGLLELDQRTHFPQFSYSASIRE
test method notes: Live cell AKT2 target engagement by NanoBRET competitive probe displacement in HEK293 cells
Format: binding
test conditions: NanoBRET competitive probe displacement, live HEK293 cells, 2 h at 37° C.; read-out: AKT2 IC50
recorded metric: pIC50
// field semantics: pIC50 = negative decimal log of concentration (mol/L)

What the record says about COc1cnn(-c2ccc3nc(-c4cccnc4N)n(-c4ccc5c(c4)CC[C@@H]5NC(=O)c4cnc(C(F)F)s4)c3n2)n1 : pIC50 is 5.57

What the record says about COc1ccn(-c2ccc3nc(-c4cccnc4N)n(-c4ccc5c(c4)CC[C@@H]5NC4CCN(C(=O)C5CC5)CC4F)c3n2)n1 (stereo partly shown) [Compound 513] : pIC50 is 6.62

What the record says about Cc1nc(C2CC2)ccc1C(=O)N[C@H]1CCc2cc(-n3c(-c4cccnc4N)nc4ccc(-n5nccn5)nc43)ccc21 : pIC50 is 6.37

What the record says about Nc1ncccc1-c1nc2ccc(C#CC3COC3)nc2n1-c1ccc2c(c1)CC[C@@H]2NC(=O)c1ccc(C(F)F)nc1 : pIC50 is 5.64

What the record says about Nc1ncccc1-c1nc2ccc(-n3cccn3)nc2n1-c1ccc2c(c1)CC[C@@H]2NC1CCN(S(=O)(=O)C2CC2)CC1 : pIC50 is 5.41

What the record says about Cc1cc(C(F)F)ncc1C(=O)N[C@H]1CCc2cc(-n3c(-c4cccnc4N)nc4ccc(-n5nccn5)nc43)ccc21 : pIC50 is 5.84

What the record says about Nc1ncccc1-c1nc2ccc(-n3ccc(N4CCS(=O)(=O)CC4)n3)nc2n1-c1ccc2c(c1)CC[C@@H]2NC1CCN(C(=O)C2CC2)CC1 : pIC50 is 6.56

What the record says about Cn1ccc(N2CCC(N[C@@H]3c4ccc(-n5c(-c6cccnc6N)nc6ccc(-n7cccn7)nc65)cc4CC3F)CC2)n1 (stereo partly shown) : pIC50 is 5.91

What the record says about Cn1c(C(=O)N[C@H]2CCc3cc(-n4c(-c5cccnc5N)nc5ccc(-n6nccn6)nc54)ccc32)cnc1C1CC1 : pIC50 is 5.50

What the record says about Cc1ccc(C(=O)N[C@H]2CCc3cc(-n4c(-c5cccnc5N)nc5ccc(-n6ncnc6C)nc54)ccc32)cn1 : pIC50 is 5.57

What the record says about Nc1ncccc1-c1nc2ccc(-n3cccn3)nc2n1-c1ccc2c(c1)CC[C@@H]2NC1CCc2cnccc2C1 (stereo partly shown) [Compound 464] : pIC50 is 6.78

What the record says about Nc1ncccc1-c1nc2ccc(-n3cccn3)nc2n1-c1ccc2c(c1)CC(F)[C@@H]2NC1CCc2cnccc21 (stereo partly shown) [Compound 481] : pIC50 is 6.56
